Assay: Partition coefficient at 25 degree Celsius in octanol/aqueous buffer at pH 6.02
Assay type: physicochemical
measure.name: logD

1: N[C@@H](Cc1cc(I)c(Oc2ccc(O)c(Cc3ccc(O)nc3)c2)c(I)c1)C(=O)O
2: N[C@@H](Cc1cc(Cl)c(Oc2ccc(O)c(Cc3ccc(O)nc3)c2)c(Cl)c1)C(=O)O
Query: Response body: label of entry with the larger logD; valid values 1 , 2 . Indicate your choice by writing its label.
Reply: 1
(1: 1.01, 2: 0.6)

====

System: Thyroid hormone receptor (Rattus norvegicus)
Experiment: Binding affinity to thyroid hormone receptor, relative to 3,5,3' triiodothyronine receptor, in isolated nuclei of heart
measure.name: Relative IC50

Look over these answered cases.
Query: Would you mind telling me what Relative IC50 value was observed for `N[C@@H](Cc1cc(Cl)c(Oc2ccc(O)c(Cc3ccc(O)nc3)c2)c(Cl)c1)C(=O)O` ?
Reply: 0.53

Query: Also `N[C@@H](Cc1cc(I)c(Oc2ccc(O)c(Cc3ccccn3)c2)c(I)c1)C(=O)O` ?
Reply: 3.5

Query: Please give the result for `N[C@@H](Cc1cc(I)c(Oc2ccc(O)c(Cc3ccc(O)nn3)c2)c(I)c1)C(=O)O` too.
Reply: 4

I: N[C@@H](Cc1cc(I)c(Oc2ccc(O)c(Cc3ccc(O)c(Cl)c3)c2)c(I)c1)C(=O)O
II: N[C@H](Cc1cc(I)c(Oc2ccc(O)c(Cc3ccc(O)nc3)c2)c(I)c1)C(=O)O
Query: Which entry shows the lesser value of Relative IC50 here, I or II ? Provide the label of your selected option as the answer.
Reply: II
